tested on: M. gypseum IF08231; experiment: Measurement of antifungal activity (minimum inhibitory concentration), agar dilution; type: cell-based; conditions: Nannizzia gypsea, 168 h; H. gypseum IF08231 (Table 1); Sabouraud's agar, one week at 27° C.; read-out: MIC value (minimum compound concentration that definitely inhibited any visible growth)
Hi! Just check whether MIC is below 3 µg/mL. Below gives t, equal or above gives f.

compound: C=C(C)c1cc(CN(C)C/C=C/C#CC(C)(C)C)ccc1C.Cl [Compound 74]
qualitative_label: f

compound: C=C(C)c1cccc(CN(C)C/C=C/C#CC(C)(C)C)c1.Cl [Compound 3]
qualitative_label: t

compound: C=C(C)c1ccccc1CN(C)C/C=C/C#CC(C)(C)C.Cl [Compound 39]
qualitative_label: f

compound: C=C(C)c1cccc(CN(CC)C/C=C/C#CC(C)(C)C)c1.Cl [Compound 45]
qualitative_label: t

compound: C=C(CC)c1cccc(CN(C)C/C=C/C#CC(C)(C)C)c1.Cl [Compound 25]
qualitative_label: f

Please let me know if C=C(C)c1cc(C)cc(CN(C)C/C=C/C#CC(C)(C)C)c1.Cl [Compound 19] shows MIC below 3 µg/mL.
t

# strict comparison: is reported MIC < 3 µg/mL? input = C=C(C)c1cc(F)cc(CN(C)C/C=C/C#CC(C)(C)C)c1.Cl [Compound 64]
t

Does the reported MIC of the following compound sit strictly below 3 µg/mL? C=Cc1cccc(CN(C)C/C=C/C#CC(C)(C)C)c1.Cl [Compound 10]
t
